# Measurement Description: Acumen qHTS Assay for Inhibitors of the mTORC1 Signaling Pathway in MEF (Tsc2-/-, p53-/-) Cells: Sytravon; also: nearly all actives have a fitted effect of over 50% in size
# Condition Set: phospho-rpS6 immunofluorescence/PI, 24 h; series mostly up to 38.3 µM
The whole screen tested about 44,000 compounds, of which about 340 (0.77%) were called active. Another 5% or so got no clear call; they are omitted. Calls follow the shape of the dose curve; as a rule, active = well fitted inhibition curve with a large enough effect; inconclusive = small, poorly fitted or top-dose-only effect; inactive = flat fitted curve, though single readings scatter. Only a selection was taken, and actives are over-represented in it overall.
Outcomes: yes (1) (active), no (0) (inactive)

>  <Compound>
CCN(CCCNC(=O)c1cc2c(=O)n(CC)c3ccccc3c2s1)Cc1ccccc1

>  <Qualitative Label>
yes (1)

$$$$
>  <Compound>
O=C(NCc1ccc2c(c1)CCN2C(=O)c1ccccc1)c1ccccc1

>  <Qualitative Label>
no (0)

$$$$
>  <Compound>
CC1=C(C(=O)OCC(C)C)C(c2ccc(OCc3ccccc3)cc2)N2C(=O)CCSC2=N1 (stereo unspecified)

>  <Qualitative Label>
no (0)

$$$$
>  <Compound>
Cn1c(=O)oc2cc(S(=O)(=O)CCC(=O)NCCc3ccc(Cl)cc3)ccc21

>  <Qualitative Label>
no (0)

$$$$
>  <Compound>
COc1ccc(-c2nn(CC(=O)Nc3ccccc3F)c3c2cnc2ccc(F)cc23)cc1

>  <Qualitative Label>
no (0)

$$$$
>  <Compound>
CCOc1cccc(CC(=O)N2CCc3c([nH]c4ccccc34)C2c2ccc(OC)cc2)c1OCC (stereo unspecified)

>  <Qualitative Label>
no (0)

$$$$
>  <Compound>
Cc1ccc(Nc2nnc(-c3ccc(C)c(S(=O)(=O)N4CCCCC4)c3)c3ccccc23)cc1

>  <Qualitative Label>
no (0)

$$$$
>  <Compound>
CCc1ccc(NC(=O)c2cc(S(=O)(=O)NC3CCCCCC3)ccc2F)cc1

>  <Qualitative Label>
no (0)

$$$$
>  <Compound>
CCOc1ccc(N(CC)C(=O)c2cc3c(=O)oc4ccccc4c3s2)cc1

>  <Qualitative Label>
no (0)

$$$$
>  <Compound>
COc1cccc(C(=O)Nc2nnc(S(=O)(=O)N3CCOCC3)s2)c1

>  <Qualitative Label>
no (0)

$$$$
>  <Compound>
COc1cc(Nc2nc(-c3ccc(OC)c(OC)c3)nc3ccccc23)cc(OC)c1

>  <Qualitative Label>
yes (1)

$$$$
>  <Compound>
COc1cccc(NC(=O)CN2C(=O)c3ccccc3Sc3ncccc32)c1

>  <Qualitative Label>
no (0)

$$$$
>  <Compound>
Cc1ccc(-c2nnc(Nc3cccc(Br)c3)c3ccccc23)cc1S(=O)(=O)NCC1CCCO1 (stereo unspecified)

>  <Qualitative Label>
no (0)

$$$$
>  <Compound>
CCn1c(=O)c2cc(C(=O)NCCc3ccc(Cl)cc3)sc2c2ccccc21

>  <Qualitative Label>
no (0)

$$$$
>  <Compound>
CCCN1C(=O)C(O)(CC(=O)c2ccc(CC)cc2)c2cc(Br)ccc21 (stereo unspecified)

>  <Qualitative Label>
yes (1)

$$$$
>  <Compound>
CCc1ccc(C2CC(=O)c3c([nH]c(C(=O)OCc4ccc(C)cc4)c3C)C2)cc1 (stereo unspecified)

>  <Qualitative Label>
no (0)

$$$$
>  <Compound>
COc1cccc(Nc2nc3ccccc3c3nncn23)c1

>  <Qualitative Label>
no (0)

$$$$
>  <Compound>
Cc1nn2c(=O)cc(COC(=O)c3cccc(NC(=O)COc4ccccc4Cl)c3)nc2s1

>  <Qualitative Label>
no (0)

$$$$
>  <Compound>
COC(=O)c1cc(NC(=O)c2cnc(SC)nc2-c2ccccc2)cc(C(=O)OC)c1

>  <Qualitative Label>
no (0)

$$$$
>  <Compound>
CCOc1ccc(C2CC(=O)c3c([nH]c(C(=O)OCc4ccccc4)c3C)C2)cc1 (stereo unspecified)

>  <Qualitative Label>
yes (1)

$$$$
>  <Compound>
CC1CCCCN1CCCNC(=O)Cn1ncc2c([nH]c3ccccc32)c1=O (stereo unspecified)

>  <Qualitative Label>
no (0)

$$$$
